MDCK-BCRP: Efflux Ratio values by entry
# measured-target: BCRP (BCRP-MDCKII monolayer) (Homo sapiens)
# Construct: host or cells: MDCKII (canine kidney) cells
# Sequence (Q9UNQ0 1-655): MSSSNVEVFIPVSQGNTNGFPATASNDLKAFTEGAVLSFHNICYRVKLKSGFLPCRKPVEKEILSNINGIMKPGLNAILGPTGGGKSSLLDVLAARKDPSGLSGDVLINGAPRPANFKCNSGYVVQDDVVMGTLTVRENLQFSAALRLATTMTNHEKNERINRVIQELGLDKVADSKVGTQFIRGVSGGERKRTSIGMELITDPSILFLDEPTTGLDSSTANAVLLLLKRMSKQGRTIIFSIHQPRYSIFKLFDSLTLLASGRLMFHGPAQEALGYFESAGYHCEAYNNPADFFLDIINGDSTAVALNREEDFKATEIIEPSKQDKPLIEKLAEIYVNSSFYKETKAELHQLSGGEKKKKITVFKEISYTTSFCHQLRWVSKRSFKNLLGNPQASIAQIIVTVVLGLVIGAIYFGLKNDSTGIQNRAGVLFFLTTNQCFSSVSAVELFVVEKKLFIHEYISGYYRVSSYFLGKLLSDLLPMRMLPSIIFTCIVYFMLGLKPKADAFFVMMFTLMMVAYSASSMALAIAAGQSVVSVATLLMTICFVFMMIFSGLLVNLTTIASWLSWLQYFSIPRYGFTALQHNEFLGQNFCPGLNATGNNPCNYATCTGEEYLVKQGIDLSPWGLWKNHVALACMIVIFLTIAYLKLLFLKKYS
# measurement-notes: MDCKII-BCRP bidirectional transport assay
# Assay type: in vitro ADME
measurement-name: MDCK-BCRP: Efflux Ratio

{"compound": "COC(=O)N1CC(c2nc(-c3ccc(C(F)F)c(NC(=O)c4cnc5ccccn45)c3)no2)C1", "readout-value": 3.27}
{"compound": "Cc1ccc(-c2noc(C3COC3)n2)cc1NC(=O)c1cnc2ccccn12", "readout-value": 5.11}
{"compound": "Cc1ccc(-c2noc([C@H]3CC(F)(F)CN3)n2)cc1NC(=O)c1cnc2ccccn12", "readout-value": 7.14}
{"compound": "Cc1ccc(-c2noc(C34COC(C)(C3)C4)n2)cc1NC(=O)c1cnc2ccccn12", "readout-value": 1.48}
{"compound": "Cc1ccc(-c2noc(C3(C)CC(F)(F)C3)n2)cc1NC(=O)c1cnc2ccccn12", "readout-value": 1.05}
{"compound": "CSCC1(c2nc(-c3ccc(C)c(NC(=O)c4cnc5ccccn45)c3)no2)CC(F)(F)C1", "readout-value": 1.03}
{"compound": "Cc1ccc(-c2noc(CC3CCCOC3)n2)cc1NC(=O)c1cnc2ccccn12 (racemic)", "readout-value": 1.35}
{"compound": "Cc1ccc(-c2noc(C3(CO)CC(F)(F)C3)n2)cc1NC(=O)c1cnc2ccccn12", "readout-value": 16}
{"compound": "COC1CC(c2nc(-c3ccc(C)c(NC(=O)c4cnc5ccccn45)c3)no2)C1 (stereo not shown)", "readout-value": 1.52}
{"compound": "Cc1nc(-c2ccc(Cl)c(NC(=O)c3cnc4ccccn34)c2)no1", "readout-value": 0.81}
{"compound": "CCCS(=O)(=O)N1CC(c2nc(-c3ccc(Cl)c(NC(=O)c4cnc5ccccn45)c3)no2)C1", "readout-value": 1.17}
{"compound": "Cc1ccc(-c2noc(C3CC(OCCF)C3)n2)cc1NC(=O)c1cnc2ccccn12 (stereo not shown)", "readout-value": 1.62}
{"compound": "Cc1ccc(-c2noc(C3CCC3F)n2)cc1NC(=O)c1cnc2ccccn12 (racemic) [Compound I-377]", "readout-value": 0.98}
